Molecular target: T1, hOX40-EC-His (human, UniProt P43489 29-214)
T1 construct: extracellular domain; bought protein; also called recombinant human OX40 antigen protein; human OX40 extracellular segment antigen; not shown: 6 His label
T1 sequence (looked up): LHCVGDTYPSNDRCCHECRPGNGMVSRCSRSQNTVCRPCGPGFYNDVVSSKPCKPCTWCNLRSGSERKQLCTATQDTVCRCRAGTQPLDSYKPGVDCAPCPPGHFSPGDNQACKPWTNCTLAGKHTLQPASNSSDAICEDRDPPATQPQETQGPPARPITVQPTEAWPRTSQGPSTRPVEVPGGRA
Assay: ELISA, supernatant diluted 50 times, coated OX40 (CK60)
parameter: 450 nm light absorption (OD450)
I only need the number, in OD450, no unit after it.

Some solved entries appear below for comparison.
# return recorded 450 nm light absorption for entry 16E4-10-5 (antibody, V domains shown, hybridoma antibody, tested as culture supernatant) VH: QVQLQESGPGLVKPSGTLSLTCDVSGGSISSSNWWSWVRQPPGKGLEWIGEIYHSGSTNYNPSLKSRVTISVDKSKNQVSLKLNSVTAADTAVYYCARGDILLWFGGQGTLVTVSS VL: EIVLTQSPGTLSLSPGERATLSCRASQSVSSRYLAWYQQKPGQAPRLLIYGASNRATGMPDRFSGSGSGTDFTLTISRLEPEDFAVYYCQQYGSSPITFGQGTRLEIKR
2.53

# return recorded 450 nm light absorption for entry 1F10-12-3 (antibody, V domains shown, hybridoma antibody, tested as culture supernatant) VH: QVQLQESGPGLVKPSGTLSLTCAVSGGSISNSNWWNWVRQPPGRGLEWIGEIYHSGSTNYNPSLKSRVTISVDKSKNQFSLKLTSVTAADTAVYYCARYSTPFFDYWGQGNLVTVSS VL: DIQMTQSPSSLSASVGDRVTITCRASQSISNYLNWYQQKQGKAPKLLIYGASSLQSGVPSRFSGSGSGTDFTLTINSLQPEDFATYCCQQSYNNPLTFGGGTKVEIKR
2.17

# return recorded 450 nm light absorption for entry 20G6-7-1 (antibody, V domains shown, hybridoma antibody, tested as culture supernatant) VH: QVQLQESGPGLVKPSGTLSLTCAVSGGSISSSNWWSWVRQPPGKGLEWIGEIYHSGNTNYNPSLKSRVTISVDKSKNQFSLKLSSVTAADTAVYYCARGGTTFDYWGQGTLVTVSS VL: EIVLMQYPGTLSLSSGERATLSCRASQSVSSRYLAWYQQKPGQAPRLLIYGASNRASGMPDRFSGSGSGTEFTLTISSLEPEDFAMYYCQQYGSSPITFGQGTRVEIKR
2.21

New cases:
# return recorded 450 nm light absorption for entry 14D3-7-3 (antibody, V domains shown, hybridoma antibody, tested as culture supernatant) VH: EVQLVESGGGLVKPGGSLRLSCAASGFTFSNAWMSWVRQAPGKGLEWVGRIKRKTDGGTTDYATPVKGRFTISRDASKNTLYLQMNSLKTEDTAVYYCTSAARRGYFDIWGRGTLVTVSS VL: EIVLTQSPGTLSLSPGERATLSCRASQSVSSRYLAWYQQKPGQAPRLLIYGASNRATGMPDRFSGSGSGTDFTLTISRLEPEDFAMYYCQQYGSSPITFGQGTRLEIKR
2.01
